Below is a list of entries, each paired with its recorded t(1/2), Mouse Microsomes value.
# test-details: Clearance in mouse liver microsomes
# Assay type: in vitro ADME
# measurement-conditions: CSV supplement

# molecule, t(1/2), Mouse Microsomes
measured = [
    ("CC(C)(C)OC(=O)N[C@H]1Cc2ccc(cc2)Oc2ccc(cc2NC(=O)c2ccccn2)C(=O)CNC(=O)[C@H](c2ccccc2)NC1=O [Compound 9]", "8,4 min"),
    ("C[C@@H]1NC(=O)[C@@H](NC(=O)OC(C)(C)C)Cc2ccc(cc2)Oc2ccc(cc2NC(=O)c2ccccn2)C(=O)CNC1=O [Compound 7]", "5,8 min"),
    ("CC(C)(C)OC(=O)N[C@H]1Cc2ccc(cc2)Oc2ccc(cc2NC(=O)c2ccccn2)C(=O)CNC(=O)[C@@H](Cc2ccccc2)NC1=O [Compound 8]", "<3 min"),
]
